Assay: in vitro
Type: cell-based
Details: human
Assign CC50 at 48 h to each entry below.

INSERT INTO measurements (compound, readout_label, result) VALUES
  ('CC(=O)OC[C@H]1O[C@@](C#N)(c2ccc3c(N)ncnn23)[C@H](O)[C@@H]1O', 'CC50 at 48 h', '> 50 µM'),
  ('CC(C)[C@@H](N)C(=O)OC[C@H]1O[C@@](C#N)(c2ccc3c(N)ncnn23)[C@H](O)[C@@H]1O', 'CC50 at 48 h', '> 50 µM'),
  ('CC(C)(C)C(=O)OC[C@H]1O[C@@](C#N)(c2ccc3c(N)ncnn23)[C@H](O)[C@@H]1O', 'CC50 at 48 h', '> 50 µM'),
  ('Cc1ccc(C(=O)OC[C@H]2O[C@@](C#N)(c3ccc4c(N)ncnn34)[C@H](O)[C@@H]2O)cc1', 'CC50 at 48 h', '> 10 µM'),
  ('N#C[C@@]1(c2ccc3c(N)ncnn23)O[C@H](CO)[C@H]2OC(=O)O[C@H]21', 'CC50 at 48 h', '> 50 µM'),
  ('N#C[C@@]1(c2ccc3c(N)ncnn23)O[C@H](COC(=O)C2CC3CCCC3C2)[C@@H](O)[C@H]1O (stereo partly drawn)', 'CC50 at 48 h', '> 10 µM'),
  ('CCCC(=O)OC[C@H]1O[C@@](C#N)(c2ccc3c(N)ncnn23)[C@H](O)[C@@H]1O', 'CC50 at 48 h', '> 10 µM'),
  ('CC(C)C(=O)OC[C@H]1O[C@@](C#N)(c2ccc3c(N)ncnn23)[C@H](O)[C@@H]1O', 'CC50 at 48 h', '> 50 µM'),
  ('CC(C)(C)CC(=O)OC[C@H]1O[C@@](C#N)(c2ccc3c(N)ncnn23)[C@H](O)[C@@H]1O', 'CC50 at 48 h', '> 10 µM'),
  ('CC(C)C(=O)OC[C@H]1O[C@@](C#N)(c2ccc3c(N)ncnn23)[C@@H]2OC(c3ccccc3)O[C@@H]21 (stereo partly drawn)', 'CC50 at 48 h', '> 100 µM');

Kindly give each listed record's CC50 at 48 h.
1. N#C[C@@]1(c2ccc3c(N)ncnn23)O[C@H](COC(=O)C2CCC2)[C@@H](O)[C@H]1O
2. N#C[C@@]1(c2ccc3c(N)ncnn23)O[C@H](COC(=O)C2CCCCC2)[C@@H](O)[C@H]1O

**A:**
["> 10 µM", "> 10 µM"]

Kindly give each listed record's CC50 at 48 h.
1. CCCC(CCC)C(=O)OC[C@H]1O[C@@](C#N)(c2ccc3c(N)ncnn23)[C@H](O)[C@@H]1O
2. N#C[C@@]1(c2ccc3c(N)ncnn23)O[C@H](COC(=O)C[C@@H](N)Cc2ccccc2)[C@@H](O)[C@H]1O
3. CC(C)C(=O)O[C@H]1[C@@H](OC(=O)C(C)C)[C@](C#N)(c2ccc3c(N)ncnn23)O[C@@H]1COC(=O)C(C)(C)N

**A:**
1. > 10 µM
2. > 50 µM
3. > 100 µM
